Biological target: T1, murine IL-11 (mouse, UniProt P47873 22-199)
T1 sequence: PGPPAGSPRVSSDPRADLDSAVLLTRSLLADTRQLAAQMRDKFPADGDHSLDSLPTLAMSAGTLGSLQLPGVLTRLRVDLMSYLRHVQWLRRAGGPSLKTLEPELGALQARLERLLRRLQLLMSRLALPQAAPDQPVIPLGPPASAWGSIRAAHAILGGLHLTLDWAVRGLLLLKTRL
Test: cell-based or functional assay
reported_metric: IC50, RGA 1 (nM)
Unit nM implied. Number only.

Check out these entries, answers already filled in.
TPP-31289 (antibody, IgG4, V domains shown) VH: EVQLLESGGGLVQPGRSLRLSCAASGFTFSHYDMNWLRQAPGKGLEWVGVISYDGSNKFYADFVKGRFTISRDNSKNTLYLQMNSLRAEDTAVYYCARTPGSHFDYWGQGTLVTVSS VL: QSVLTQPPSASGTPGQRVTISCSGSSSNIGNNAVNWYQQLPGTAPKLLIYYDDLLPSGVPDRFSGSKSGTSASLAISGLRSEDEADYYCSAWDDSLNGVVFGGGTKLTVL; 27
TPP-31286 (antibody, IgG4, V domains shown) VH: QVQLLESGGGLVQPGGSLRLSCAASGFTFSHYDMNWLRQAPGKGLEWVGVISYDGSNKFYADFVKGRFTISRDNSKNTLYLQMNSLRAEDTAVYYCARTPGSHFDYWGQGTLVTVSS VL: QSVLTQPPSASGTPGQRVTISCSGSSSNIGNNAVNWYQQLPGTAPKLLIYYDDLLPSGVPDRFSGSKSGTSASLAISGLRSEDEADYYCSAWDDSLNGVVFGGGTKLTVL; 18
TPP-31279 (antibody, IgG4, V domains shown) VH: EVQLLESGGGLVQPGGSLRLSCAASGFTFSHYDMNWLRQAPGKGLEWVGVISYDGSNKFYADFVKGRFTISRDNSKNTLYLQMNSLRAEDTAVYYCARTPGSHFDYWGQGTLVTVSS VL: QSVLTQPPSASGTPGQRVTISCSGSSSNIGNNAVYWYQQLPGTAPKLLIYYDDLLPSGVPDRFSGSKSGTSASLAISGLRSEDEADYYCSAWDDSLNGVVFGGGTKLTVL; 196

Now for another entry.
Identify the reported IC50, RGA 1 for the following entry. TPP-31287 (antibody, IgG4, V domains shown) VH: EVQLVESGGGLVQPGGSLRLSCAASGFTFSHYDMNWLRQAPGKGLEWVGVISYDGSNKFYADFVKGRFTISRDNSKNTLYLQMNSLRAEDTAVYYCARTPGSHFDYWGQGTLVTVSS VL: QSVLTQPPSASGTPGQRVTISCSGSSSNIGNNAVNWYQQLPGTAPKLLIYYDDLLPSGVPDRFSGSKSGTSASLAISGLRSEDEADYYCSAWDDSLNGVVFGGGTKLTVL 41
